- measurement_target: T1, KDM5B-PHD1-D332A (Homo sapiens)
- T1 chain: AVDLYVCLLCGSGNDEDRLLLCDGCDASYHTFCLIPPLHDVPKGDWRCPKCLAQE
- assay_overview: ITC
pKd: −log10 of the molar value.
property_label: pKd

binder="ARTKQTARKS (histone H3 N-terminal tail, residues 1-10; also called H3K4me0; H3K4me0 peptide; source: synthetic peptide, bought: GL Biochem Ltd. (Shanghai, China)) [unmodified H3K4 peptide (residues 1-10)]" property_label=pKd value_reported=4.95
